Sourced from paper PMC12752606

biological target: DOT1L (Homo sapiens)
Sequence (Q8TEK3 whole entry, species assumed): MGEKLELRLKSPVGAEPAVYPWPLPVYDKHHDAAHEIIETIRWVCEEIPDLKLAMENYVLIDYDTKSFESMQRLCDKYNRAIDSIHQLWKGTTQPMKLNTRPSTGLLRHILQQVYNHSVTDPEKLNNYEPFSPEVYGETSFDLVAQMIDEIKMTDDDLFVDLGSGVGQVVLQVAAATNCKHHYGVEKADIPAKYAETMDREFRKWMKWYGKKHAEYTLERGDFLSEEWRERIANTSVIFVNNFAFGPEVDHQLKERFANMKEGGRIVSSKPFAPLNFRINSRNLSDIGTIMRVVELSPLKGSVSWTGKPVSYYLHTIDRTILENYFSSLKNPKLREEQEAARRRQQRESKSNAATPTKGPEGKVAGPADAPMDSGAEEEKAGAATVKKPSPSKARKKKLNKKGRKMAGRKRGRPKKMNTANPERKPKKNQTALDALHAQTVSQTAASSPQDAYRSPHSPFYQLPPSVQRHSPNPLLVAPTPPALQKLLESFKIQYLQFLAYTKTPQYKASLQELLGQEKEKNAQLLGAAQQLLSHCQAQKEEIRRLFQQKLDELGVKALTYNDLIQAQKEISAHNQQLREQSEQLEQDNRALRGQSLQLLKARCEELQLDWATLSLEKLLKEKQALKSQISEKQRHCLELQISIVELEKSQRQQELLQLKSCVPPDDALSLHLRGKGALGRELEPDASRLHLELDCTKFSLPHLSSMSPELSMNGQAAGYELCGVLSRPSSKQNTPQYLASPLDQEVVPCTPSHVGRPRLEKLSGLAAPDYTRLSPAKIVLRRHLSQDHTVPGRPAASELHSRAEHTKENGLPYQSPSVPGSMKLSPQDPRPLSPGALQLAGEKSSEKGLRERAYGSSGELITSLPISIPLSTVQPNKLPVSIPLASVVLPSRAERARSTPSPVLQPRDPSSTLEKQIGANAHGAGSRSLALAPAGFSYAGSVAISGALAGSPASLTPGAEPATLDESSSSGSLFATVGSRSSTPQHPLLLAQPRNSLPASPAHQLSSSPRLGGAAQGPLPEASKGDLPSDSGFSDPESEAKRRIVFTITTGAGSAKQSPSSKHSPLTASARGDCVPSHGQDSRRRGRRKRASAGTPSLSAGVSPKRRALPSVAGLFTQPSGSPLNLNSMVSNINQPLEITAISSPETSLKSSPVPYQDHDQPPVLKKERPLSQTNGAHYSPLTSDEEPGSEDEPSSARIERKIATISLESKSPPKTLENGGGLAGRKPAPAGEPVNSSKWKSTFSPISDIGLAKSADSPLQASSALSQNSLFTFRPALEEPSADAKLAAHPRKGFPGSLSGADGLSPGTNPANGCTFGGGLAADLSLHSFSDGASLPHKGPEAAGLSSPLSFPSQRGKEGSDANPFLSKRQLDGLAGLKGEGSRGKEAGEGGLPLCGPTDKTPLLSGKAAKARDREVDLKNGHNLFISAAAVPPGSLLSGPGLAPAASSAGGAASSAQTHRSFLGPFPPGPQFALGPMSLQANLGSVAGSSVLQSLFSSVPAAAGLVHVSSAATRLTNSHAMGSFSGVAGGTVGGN
pIC50: −log10 of the molar value.

{"columns": ["COMPOUND", "pIC50"],
 "data": [
  ["Cc1ccc(Nc2ncc3c(n2)N(C)C(=O)N(c2cccc(N)c2)C3)cn1 [LZQ-02-023-01]", 4.88]
]}

* * *

assay: Plasma pharmacokinetics after IV and PO administration; type: in vivo, male Sprague–Dawley rats; conditions: male, Sprague-Dawley, rat, plasma, po, 10 mg/kg, PO 10 mg/kg; read-out: Tmax, mean

{"columns": ["QUERY SMILES", "Tmax / min"],
 "data": [
  ["Cc1ccc(Nc2ncc3c(n2)N(C)C(=O)N(c2cccc(N)c2)C3)cn1", 20]
]}

* * *

experiment: Plasma pharmacokinetics after IV and PO administration; assay type: in vivo, male Sprague–Dawley rats; conditions: male, Sprague-Dawley, rat, plasma, po, 10 mg/kg, PO 10 mg/kg, 1 h; read-out: Plasma concentration, mean
RECORDED METRIC: concentration at 1 h

{"columns": ["QUERY SMILES", "RESULT"],
 "data": [
  ["Cc1ccc(Nc2ncc3c(n2)N(C)C(=O)N(c2cccc(N)c2)C3)cn1", "5.83 ng/mL"]
]}

* * *

test: Plasma pharmacokinetics after IV and PO administration; type: in vivo, male Sprague–Dawley rats; conditions: male, Sprague-Dawley, rat, plasma, iv, 1 mg/kg, IV 1 mg/kg; read-out: T1/2, mean (converted)
RECORDED METRIC: half-life (min)

{"columns": ["QUERY SMILES", "SCALE UNIT", "NUMERIC READOUT"],
 "data": [
  ["Cc1ccc(Nc2ncc3c(n2)N(C)C(=O)N(c2cccc(N)c2)C3)cn1", "min", 37.2]
]}

* * *

assay: Plasma pharmacokinetics after IV and PO administration; type: in vivo, male Sprague–Dawley rats; conditions: male, Sprague-Dawley, rat, plasma, po, 10 mg/kg, PO 10 mg/kg; read-out: T1/2, mean (converted)

{"columns": ["MOLECULE", "SCALE UNIT", "half-life"],
 "data": [
  ["Cc1ccc(Nc2ncc3c(n2)N(C)C(=O)N(c2cccc(N)c2)C3)cn1 [LZQ-02-023-01]", "h", 1.51]
]}

* * *

molecular target: EZH2 [Y641F] (Homo sapiens, UniProt Q15910, Y641F); test: Off-target methyltransferase profiling (MTase-Glo)
Sequence (Q15910 whole entry Y641F): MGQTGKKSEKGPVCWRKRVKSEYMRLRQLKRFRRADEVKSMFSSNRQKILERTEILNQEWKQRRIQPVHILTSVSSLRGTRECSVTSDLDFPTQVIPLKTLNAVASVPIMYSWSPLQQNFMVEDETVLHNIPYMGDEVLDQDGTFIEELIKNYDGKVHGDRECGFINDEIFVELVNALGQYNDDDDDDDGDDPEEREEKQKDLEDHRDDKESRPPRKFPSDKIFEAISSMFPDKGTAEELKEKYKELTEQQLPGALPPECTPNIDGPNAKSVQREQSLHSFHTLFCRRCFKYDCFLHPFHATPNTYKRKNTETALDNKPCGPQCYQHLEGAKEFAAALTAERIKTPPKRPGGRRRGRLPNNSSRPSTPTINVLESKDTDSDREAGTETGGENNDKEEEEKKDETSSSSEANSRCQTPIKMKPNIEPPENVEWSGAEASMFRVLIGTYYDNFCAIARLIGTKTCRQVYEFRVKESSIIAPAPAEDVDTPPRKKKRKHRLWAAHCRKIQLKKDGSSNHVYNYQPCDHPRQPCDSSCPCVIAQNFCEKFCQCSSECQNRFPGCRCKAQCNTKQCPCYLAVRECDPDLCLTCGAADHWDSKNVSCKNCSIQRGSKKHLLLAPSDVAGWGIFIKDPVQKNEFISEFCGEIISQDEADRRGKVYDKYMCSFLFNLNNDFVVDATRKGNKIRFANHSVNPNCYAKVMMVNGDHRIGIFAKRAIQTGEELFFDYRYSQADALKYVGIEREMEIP
Sequence (O75530 whole entry partner): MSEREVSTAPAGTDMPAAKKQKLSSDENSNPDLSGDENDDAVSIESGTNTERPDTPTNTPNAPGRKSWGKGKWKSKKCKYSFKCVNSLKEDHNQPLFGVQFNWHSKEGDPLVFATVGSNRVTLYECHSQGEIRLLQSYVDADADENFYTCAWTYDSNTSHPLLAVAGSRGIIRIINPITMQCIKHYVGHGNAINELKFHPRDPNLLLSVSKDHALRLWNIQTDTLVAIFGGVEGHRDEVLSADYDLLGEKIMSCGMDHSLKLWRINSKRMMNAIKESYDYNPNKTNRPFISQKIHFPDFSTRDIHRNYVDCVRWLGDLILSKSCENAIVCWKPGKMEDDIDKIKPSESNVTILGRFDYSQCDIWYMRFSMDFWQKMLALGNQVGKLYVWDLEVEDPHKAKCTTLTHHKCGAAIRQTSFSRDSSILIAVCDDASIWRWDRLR
Sequence (Q15022 whole entry partner): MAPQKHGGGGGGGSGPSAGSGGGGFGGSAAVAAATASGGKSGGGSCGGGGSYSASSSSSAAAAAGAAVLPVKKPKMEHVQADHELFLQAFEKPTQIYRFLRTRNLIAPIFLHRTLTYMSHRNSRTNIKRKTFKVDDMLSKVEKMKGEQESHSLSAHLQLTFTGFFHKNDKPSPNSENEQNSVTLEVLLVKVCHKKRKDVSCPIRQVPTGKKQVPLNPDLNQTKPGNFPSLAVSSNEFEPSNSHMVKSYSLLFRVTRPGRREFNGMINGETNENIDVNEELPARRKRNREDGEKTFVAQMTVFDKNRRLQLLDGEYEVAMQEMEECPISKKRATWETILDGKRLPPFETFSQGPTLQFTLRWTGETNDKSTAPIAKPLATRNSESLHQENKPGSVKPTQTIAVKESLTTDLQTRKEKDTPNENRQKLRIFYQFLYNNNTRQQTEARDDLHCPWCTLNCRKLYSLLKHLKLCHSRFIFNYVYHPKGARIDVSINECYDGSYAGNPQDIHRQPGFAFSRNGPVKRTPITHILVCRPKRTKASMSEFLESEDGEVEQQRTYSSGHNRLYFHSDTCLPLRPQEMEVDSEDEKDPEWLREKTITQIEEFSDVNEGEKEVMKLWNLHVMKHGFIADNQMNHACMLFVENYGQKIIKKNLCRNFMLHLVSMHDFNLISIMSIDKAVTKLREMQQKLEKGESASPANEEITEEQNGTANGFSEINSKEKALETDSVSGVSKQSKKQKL
Sequence (Q09028 whole entry partner): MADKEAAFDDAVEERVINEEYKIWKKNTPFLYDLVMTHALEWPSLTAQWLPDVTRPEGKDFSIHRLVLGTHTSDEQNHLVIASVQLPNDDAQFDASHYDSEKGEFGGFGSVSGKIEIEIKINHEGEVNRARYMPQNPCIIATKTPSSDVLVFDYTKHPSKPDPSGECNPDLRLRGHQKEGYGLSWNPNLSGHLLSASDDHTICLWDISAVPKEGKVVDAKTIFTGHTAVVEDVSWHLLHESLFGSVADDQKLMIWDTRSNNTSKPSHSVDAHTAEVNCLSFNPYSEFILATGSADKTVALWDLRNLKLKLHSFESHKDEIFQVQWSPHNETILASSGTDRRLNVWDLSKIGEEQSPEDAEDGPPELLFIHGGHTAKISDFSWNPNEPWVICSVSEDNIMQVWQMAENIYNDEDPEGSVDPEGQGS

{"columns": ["QUERY SMILES", "IC50"],
 "data": [
  ["Cc1ccc(Nc2ncc3c(n2)N(C)C(=O)N(c2cccc(N)c2)C3)cn1", "2.94 µM"]
]}

* * *

Biological target: UniProt:O96028
Sequence (O96028 1-1365): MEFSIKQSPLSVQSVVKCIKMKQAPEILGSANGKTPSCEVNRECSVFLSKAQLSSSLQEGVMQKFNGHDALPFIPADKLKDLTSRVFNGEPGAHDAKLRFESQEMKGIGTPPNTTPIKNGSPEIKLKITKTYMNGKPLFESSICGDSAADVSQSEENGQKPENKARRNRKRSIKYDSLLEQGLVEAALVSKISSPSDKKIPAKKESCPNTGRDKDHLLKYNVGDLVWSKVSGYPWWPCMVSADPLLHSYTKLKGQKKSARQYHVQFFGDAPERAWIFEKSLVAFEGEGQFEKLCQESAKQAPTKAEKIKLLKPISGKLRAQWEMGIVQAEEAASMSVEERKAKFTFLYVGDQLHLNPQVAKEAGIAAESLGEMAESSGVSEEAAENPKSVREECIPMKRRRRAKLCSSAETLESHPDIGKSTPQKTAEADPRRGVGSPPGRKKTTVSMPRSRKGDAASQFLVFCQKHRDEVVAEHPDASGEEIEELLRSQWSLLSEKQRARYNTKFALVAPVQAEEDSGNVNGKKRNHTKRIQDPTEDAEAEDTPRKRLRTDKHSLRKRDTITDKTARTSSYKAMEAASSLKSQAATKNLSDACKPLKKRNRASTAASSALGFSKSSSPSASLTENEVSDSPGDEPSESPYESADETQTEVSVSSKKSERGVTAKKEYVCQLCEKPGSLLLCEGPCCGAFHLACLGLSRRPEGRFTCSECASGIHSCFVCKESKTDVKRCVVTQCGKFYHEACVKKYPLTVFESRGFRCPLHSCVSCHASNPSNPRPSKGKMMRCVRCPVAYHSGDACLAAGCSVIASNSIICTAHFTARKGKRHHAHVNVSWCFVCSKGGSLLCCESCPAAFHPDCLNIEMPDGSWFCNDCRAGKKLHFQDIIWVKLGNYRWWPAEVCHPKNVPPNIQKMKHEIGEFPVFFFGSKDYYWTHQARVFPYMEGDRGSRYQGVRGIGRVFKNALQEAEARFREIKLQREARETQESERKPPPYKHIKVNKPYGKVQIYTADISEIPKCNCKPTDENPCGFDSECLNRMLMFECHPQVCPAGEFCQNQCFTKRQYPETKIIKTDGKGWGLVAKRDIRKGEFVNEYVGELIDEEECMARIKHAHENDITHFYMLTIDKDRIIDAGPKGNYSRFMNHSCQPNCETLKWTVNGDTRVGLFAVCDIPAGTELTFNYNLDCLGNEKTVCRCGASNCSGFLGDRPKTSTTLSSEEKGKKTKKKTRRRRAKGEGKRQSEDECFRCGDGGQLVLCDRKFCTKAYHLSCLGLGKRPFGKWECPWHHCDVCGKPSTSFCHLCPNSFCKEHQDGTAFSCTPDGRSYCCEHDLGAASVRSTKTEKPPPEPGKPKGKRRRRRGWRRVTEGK

{"columns": ["COMPOUND", "IC50 (µM)"],
 "data": [
  ["Cc1ccc(Nc2ncc3c(n2)N(C)C(=O)N(c2cccc(N)c2)C3)cn1 [LZQ-02-023-01]", 9.53]
]}
